Reference source for all entries: ChEMBL document CHEMBL1129678

- protocol notes: Selectivity between AMPA/kainate receptor and NMDA/glycine receptor
- Design: reference not given here
result type: Selectivity

mol=O=C(NO)c1cc2ccc([N+](=O)[O-])cc2nc1O result="> 10"
mol=O=C(Nc1nn[nH]n1)c1cc2ccc([N+](=O)[O-])cc2nc1O result="> 0.16"
mol=O=[N+]([O-])c1ccc2cc(-c3nn[nH]n3)c(O)nc2c1 result="> 5"
mol=CP(=O)(O)c1cc2c(Cl)cc(Cl)cc2nc1O result="< 0.5"

----------
- target desc: Glutamate NMDA receptor
- protocol notes: Antagonistic activity against N-methyl-D-aspartate glutamate receptor 1 in Xenopus oocytes
- Format: functional, cell-based
- condition parameters: oocyte
result type: IC50

mol=CP(=O)(O)c1cc2c(Cl)cc(Cl)cc2nc1O result_type=IC50 result="51 µM"
mol=O=[N+]([O-])c1ccc2cc(-c3nn[nH]n3)c(O)nc2c1 result_type=IC50 result="> 16 µM"
mol=O=[N+]([O-])c1cc2cc(P(=O)(O)O)c(O)nc2cc1[N+](=O)[O-] result_type=IC50 result="51.5 µM"
mol=O=C(Nc1nn[nH]n1)c1cc2ccc([N+](=O)[O-])cc2nc1O result_type=IC50 result="> 16 µM"
